# Test system: OVCAR-4 ovarian
# experiment: NCI-60 one-dose screen, 48 h (100 = growth as untreated, 0 = no growth, -100 = all killed)
# protocolConditions: 10 µM unless noted
About 83,000 compounds went through this panel and 20% of them were active in at least one assay; those are over-represented in the sample as a whole.
measuredEndpoint: growth (%)
Answers are plain numbers, in %.

See these solved cases before continuing.
{"columns": ["molecule", "unitSymbol", "growth"],
 "data": [
  ["CNC(=O)c1cc(Oc2ccc3nc(NC(=O)c4cccc(C(F)(F)F)c4)sc3c2)ccn1", "%", 101],
  ["C[C@@H]1C[C@H]2C(=O)OCC(NC(=O)[C@H](Cc3cc(F)cc(F)c3)NC(=O)Nc3ccc(Cl)cc3F)C(=O)N3CCC[C@H]3C(=O)N3CCCC[C@H]3C(=O)N[C@@H](C)C(=O)N2C1 (stereo partly specified)", "%", 23.6],
  ["O=C1/C(=C/c2ccc([N+](=O)[O-])cc2)SC(=Nc2ccccc2)N1Nc1ccccc1", "%", 52.9],
  ["O=C(Nc1cc(Cl)cc(Cl)c1)Nc1ccc2oc(=O)ccc2c1", "%", 19.5],
  ["CCN1C(=O)N(CC)C2SC(N/N=C/c3ccccc3)=NC21 (stereo unspecified)", "%", 71.6]
]}

Field: growth. Fill in for each record below.
1. Cc1ccccc1/C=C/c1nn2c(-c3ccoc3C)nnc2s1
2. CCOC(=O)Nc1cccc(-n2cnc3cc(-c4ccc(O)cc4)ccc32)c1
3. Cn1c(SC(C(=O)Nc2ccc(F)cc2)c2ccccc2)nc2ccccc2c1=O (stereo unspecified)
4. Oc1ccc(CSc2nnc(-c3ccccc3)o2)c2cccnc12

Ans.
[99.6, 56, 102, 16.5]

Field: growth. Fill in for each record below.
1. O=C(/C=C1\C=CN(CCCCCCF)c2ccccc21)n1ccc2ccccc21
2. O=C(CSc1nnc(-c2ccc(Cl)cc2)n1-c1ccccc1)Nc1ccc(F)cc1
3. CCOc1ccc2nc(NC(=O)Nc3ccccc3C)sc2c1
4. Cc1cc2nc(C(Cl)Cl)nc(-c3ccco3)n2n1
5. CCOC(=O)CC(=O)CSC1=NC2C(NN1)N(C)C(=O)N2C (stereo unspecified)
6. CCCCCCNC(=O)Oc1ccc(/C(=C(\C)c2ccc(OC)cc2)c2ccc(OCCN(C)C)cc2)cc1

Ans.
1: 81.9; 2: 98.3; 3: 80.2; 4: 79.5; 5: 88.9; 6: 90.9

Field: growth. Fill in for each record below.
1. COc1ccc(Oc2ccc(C3CC(c4cc(OC)c(OC)c(OC)c4)=NN3C(C)=O)cc2)cc1 (stereo unspecified)
2. CCC(=O)Nc1cc(Nc2cc(NC3CC3)n3ncc(C#N)c3n2)ccc1C
3. NC(=O)C(=Cc1ccc(Cl)cc1)C(N)=O
4. C#CCOc1ccc(C(Nc2cc(Cl)ccc2Cl)c2nnnn2C2CCCCC2)cc1 (stereo unspecified)
5. CN(C)CCn1c2ccc(N)cc2c2nc3ccccc3nc21
6. CCN1C(=O)N(CC)C2SC(N/N=C/c3ccccc3F)=NC21 (stereo unspecified)

Ans.
[18, 17.1, 62.3, 93.3, 53.5, 68.4]

---

# System: PC-3 prostate
# experiment: NCI-60 one-dose screen, 48 h
# protocolConditions: 10 µM unless noted
Compounds without any hit were thinned out: in the full panel of roughly 83,000, 20% have a hit. The source made the active and inactive calls. The calls were made as follows: active = growth percent below 10; inactive = the rest.
Your reply should match one of these outcome classes. active, inactive

Record excerpt, results attached:
{"columns": ["compound", "labelClass"],
 "data": [
  ["O=S(=O)(Nc1ccc2c(c1)OC(F)(F)O2)c1ccc(-c2cnc(C3CC3)o2)cc1", "inactive"],
  ["COc1ccc(-c2no[n+]([O-])c2Nc2ccccc2Br)cc1", "inactive"],
  ["COc1ccc(-c2cc(-c3cccc4ccccc34)n3c(n2)nc2ccccc23)cc1", "inactive"],
  ["Clc1ccc(-c2csc(Nc3cccc(Nc4csc(-c5ccc(Cl)cc5)n4)c3)n2)cc1", "inactive"],
  ["Cn1cc2c(c1)-c1c(sc3nc(-c4ccc(NC(=O)Nc5cc(C(C)(C)C)on5)cc4)cn13)CC2", "inactive"],
  ["O=C(NNc1nc2cc(F)ccc2n2cncc12)c1cnccn1", "inactive"],
  ["CS(=O)(=O)c1nccc(-c2c(-c3ccc(F)c(OCCc4ccccc4)c3)nc3sccn23)n1", "inactive"],
  ["O=C(CSc1nnc(-c2cccs2)n1-c1ccccc1)Nc1ccc(F)cc1", "inactive"]
]}

Qu. Please state the recorded outcome for this compound: "c1ccc(-c2c(-c3ccccc3)[n+](Cc3ccc4ccccc4c3)c(-c3ccccc3)n2Cc2ccc3ccccc3c2)cc1"
Ans. active

Qu. Please state the recorded outcome for this compound: "CN1CCN(c2ccc(C(=O)Nc3cccc(-c4cn(-c5ccc(S(N)(=O)=O)cc5)nn4)c3)cc2C(F)(F)F)CC1"
Ans. inactive

---

# Test system: MCF7 breast
# experiment: NCI-60 one-dose screen, 48 h
# protocolConditions: 10 µM unless noted
# Protocol: Growth inhibition of the MCF7 human tumor cell line is measured as a screen for anti-cancer activity. Cells are grown in 96 well plates and exposed to the test compound for 48 hours. Compounds are tested at a single concentration, which is 10^-5 M for most compounds. The reported endpoint is percent growth (GI% or GIPRCNT), where numbers from 0 - 100% represent growth inhibition, and numbers from -100% - 0 represent cell death. For example, a value of 40 represents 60% growth inhibition. […]
This is part of a sample that, as a whole, favours compounds with a hit. Of some 83,000 tested, about 20% had one in any assay. The source made the active and inactive calls. Rule for the calls: active = growth percent below 10; inactive = the rest.
Your reply should match one of these outcome classes. t (active), f (inactive)

{"columns": ["molecule", "measuredOn", "labelClass"],
 "data": [
  ["CC(c1ccccc1)N1C(=O)/C(=C/c2csc(C#N)n2)SC1=S (centres undefined)", "MCF7 breast", "f"],
  ["CCOC(=O)c1c(Nc2ccccc2)nn2c(-c3ccc(Br)cc3)ccnc12", "MCF7 breast", "f"],
  ["COc1ccc2c(C3=C(c4cn(C)c5ccccc45)C(=O)NC3=O)coc2c1", "MCF7 breast", "f"],
  ["Cc1nc(-c2cc3ccccc3c(N3CCN(C)CC3)n2)cs1", "MCF7 breast", "f"],
  ["O=S(=O)(Nc1ccc(C2CC2)cc1)c1ccc(-c2cnc(C3CC3)o2)cc1", "MCF7 breast", "f"]
]}

Continue with the molecule presented below.
Qu. Please state the recorded outcome for this molecule: C#CCOc1ccc(C(Nc2ccc(Cl)cc2)c2nnnn2C2CCCCC2)cc1 (centres undefined)
Ans. f

---

Exercise: state measured growth for each of the compounds provided.
# Tested on: HCT-116 colon
# experiment: NCI-60 one-dose screen, 48 h (100 = growth as untreated, 0 = no growth, -100 = all killed)
# protocolConditions: 10 µM unless noted
This is part of a sample that, as a whole, favours compounds with a hit. Of some 83,000 tested, about 20% had one in any assay.
Answers are plain numbers, in %.

See these solved cases before continuing.
{"columns": ["entrySmiles", "growth, %"],
 "data": [
  ["C=C(C)[C@@H]1CC[C@]2(C(=O)ON)CC[C@]3(C)[C@H](CC[C@@H]4[C@@]5(C)C/C(=C/c6ccc(Br)cc6)C(=O)C(C)(C)[C@@H]5CC[C@]43C)[C@@H]12", 48.6],
  ["Cc1cc(NS(=O)(=O)c2ccc(-c3cnc(C4CC4)o3)cc2)ccc1I", 28.3]
]}

Field: growth. Fill in for each record below.
1. COc1ccc([C@H]2[C@H](O)C(=O)N2c2cc(OC)c(OC)c(OC)c2)cc1
2. Oc1ccc(CSc2nnc(-c3ccc(Cl)cc3)o2)c2cccnc12

Ans.
[0.54, 20.8]

---

# Test system: DU-145 prostate
# experiment: NCI-60 one-dose screen, 48 h (100 = growth as untreated, 0 = no growth, -100 = all killed)
# protocolConditions: 10 µM unless noted
This is part of a sample that, as a whole, favours compounds with a hit. Of some 83,000 tested, about 20% had one in any assay.
Decision: growth >= 80% yields t, all other cases yield f.

{"columns": ["entrySmiles", "labelClass"],
 "data": [
  ["COCCOc1ccc(-c2csc(NC(C)=O)n2)cc1NS(=O)(=O)c1cccc2c(N(C)C)cccc12", "t"],
  ["O=C(Nc1ccccc1)Nc1nc2ccc([N+](=O)[O-])cc2s1", "f"]
]}

Qu. Quick check: does "O=C(CN1CCN(c2cc(=O)n(-c3ccccc3)c3ccccc23)CC1)Nc1ccc([N+](=O)[O-])cc1" have growth greater than or equal to 80%?
Ans. t

Qu. Quick check: does "O=C1/C(=C/c2ccc([N+](=O)[O-])cc2)SC(=Nc2ccccc2)N1Nc1ccccc1" have growth greater than or equal to 80%?
Ans. f

Qu. Quick check: does "Nc1nc(-c2cccc([N+](=O)[O-])c2)c(N=Nc2cccc(Cl)c2)s1" have growth greater than or equal to 80%?
Ans. f

Qu. Quick check: does "COc1ccc2oc3c4[nH]c5ccccc5c4c4c(c3c2c1)C(=O)N(O)C4=O" have growth greater than or equal to 80%?
Ans. t

Qu. Quick check: does "COc1cc(/C=N/n2cnc3oc(-c4ccccc4)cc3c2=N)cc(CN2CCCC2)c1O" have growth greater than or equal to 80%?
Ans. f

Qu. Quick check: does "COc1ccc2c(C3=C(c4c[nH]c5ccccc45)C(=O)N(O)C3=O)coc2c1" have growth greater than or equal to 80%?
Ans. t

Qu. Quick check: does "C#C[C@]1(O)CC[C@H]2[C@@H]3CC=C4c5sc(Nc6ccncc6)nc5CC[C@]4(C)[C@H]3CC[C@@]21C" have growth greater than or equal to 80%?
Ans. f

Qu. Quick check: does "C(=C(\C1=NCCN1)n1cnc2ccccc21)/c1ccc2ccccc2c1" have growth greater than or equal to 80%?
Ans. f

Qu. Quick check: does "COc1ccc(-c2cc(-c3cccc4ccccc34)n3c(n2)nc2ccccc23)cc1" have growth greater than or equal to 80%?
Ans. f

Qu. Quick check: does "O=C1[C@H]2Cc3c([nH]c4ccccc34)[C@@H](c3c(Cl)cccc3Cl)N2C(=O)CN1C1CCN(Cc2ccccc2)CC1" have growth greater than or equal to 80%?
Ans. f

Qu. Quick check: does "Cc1ccc(/C=C/CC(=O)Nc2ccc(C(=O)Nc3ccc(F)cc3N)cc2)cn1" have growth greater than or equal to 80%?
Ans. f

Qu. Quick check: does "COc1cc(C(=O)C[n+]2ccc3ccccc3c2)cc(OC)c1OC" have growth greater than or equal to 80%?
Ans. t

Qu. Quick check: does "O=C(O)c1ccc(-n2cc(CNc3ccc(F)cc3)c(-c3ccc(C(F)(F)F)cc3)n2)cc1" have growth greater than or equal to 80%?
Ans. t

Qu. Quick check: does "COc1cc(/C=N/n2cnc3oc(-c4ccccc4)cc3c2=N)cc(CN2CCCCC2)c1O" have growth greater than or equal to 80%?
Ans. f

Qu. Quick check: does "O=C1c2c(c3c4cc(O)ccc4oc3c3[nH]c4ccccc4c23)C(=O)N1O" have growth greater than or equal to 80%?
Ans. f

Qu. Quick check: does "Cc1ccc(Nc2ncnc3c2c(C)nn3-c2ccc([N+](=O)[O-])cc2)cc1" have growth greater than or equal to 80%?
Ans. t

Value source: PubChem BioAssay (NCI)
